Sourced from patent US20260295053A1

- Test System: KRAS (G12D) (Homo sapiens, UniProt P01116, G12D)
- Construct: in-cell western with KRAS G12D antibody after 24 h
- Sequence (P01116 1-188 isoform P01116-2 G12D): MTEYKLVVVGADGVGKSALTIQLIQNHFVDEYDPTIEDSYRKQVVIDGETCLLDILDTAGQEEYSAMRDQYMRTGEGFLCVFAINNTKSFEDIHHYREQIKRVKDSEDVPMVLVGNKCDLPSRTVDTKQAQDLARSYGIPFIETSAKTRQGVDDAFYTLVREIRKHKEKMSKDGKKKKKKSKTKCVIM
- Test Summary: KRAS (G12D) cellular degradation assay in AsPC-1 cells
- Format: cell-based
- Condition Summary: 24 hours, antibody fluorescence (Odyssey CLX), DC50 half-maximal degradation concentration
// reported DC50 for each item listed

# count of solved cases: 3
CO[C@@H](C)COc1nc(N2C[C@@H]3C[C@H]2CN3)c2cc(C3CC3)c(-c3c(C)c(F)cc4[nH]ncc34)c(OCc3ccc(-c4cn([C@H](C(=O)N5C[C@H](O)C[C@H]5C(=O)N[C@H](C#Cc5cc(F)cc(F)c5)CO)C(C)C)nn4)cc3)c2n1 ... 10 to 100 nM
CCn1nccc1-c1ccc([C@@H](NC(=O)[C@@H]2C[C@@H](O)CN2C(=O)[C@H](C(C)C)n2cc(-c3ccc(COc4c(-c5c(C)c(F)cc6[nH]ncc56)c(C5CC5)cc5c(N6C[C@@H]7C[C@H]6CN7)nc(OC6CC7(COC7)C6)nc45)cc3)nn2)[C@H](C)O)cc1 ... < 10 nM
CCn1nccc1-c1ccc([C@H](CO)NC(=O)[C@@H]2C[C@@H](O)CN2C(=O)[C@H](C(C)C)n2cc(-c3ccc(COc4c(-c5c(C)c(F)cc6[nH]ncc56)c(C5CC5)cc5c(N6C[C@@H]7C[C@H]6CN7)nc(OC[C@H](C)OC)nc45)cc3C)nn2)cc1 ... < 10 nM

stdin: What value of DC50 has been reported for the following molecule? "CO[C@@H](C)COc1nc(N2C[C@@H]3C[C@H]2CN3)c2cc(C3CC3)c(-c3c(C)c(F)cc4[nH]ncc34)c(OCc3ccc(-c4cn([C@H](C(=O)N5C[C@H](O)C[C@H]5C(=O)N[C@H](c5ccc(-c6scnc6C)cc5)[C@H](C)O)C(C)C)nn4)cc3)c2n1"
stdout: < 10 nM

stdin: Here is the next molecule: CCn1nccc1-c1ccc([C@H](CO)NC(=O)[C@@H]2C[C@@H](O)CN2C(=O)[C@H](C(C)C)n2cc(-c3ccc(COc4c(-c5c(C)c(F)cc6[nH]ncc56)c(C5CC5)cc5c(N6C[C@H]7C[C@@H]6CN7)nc(OC[C@H](C)OC)nc45)cc3)nn2)cc1 (single isomer, unassigned) [Example 1A]
stdout: < 10 nM

stdin: Next entry: "CO[C@@H](C)COc1nc(N(C)[C@H]2CCNC2)c2cc(C3CCC3)c(-c3c(C)c(F)c(F)c4[nH]ncc34)c(OCc3ccc(-c4cn([C@H](C(=O)N5C[C@H](O)C[C@H]5C(=O)N[C@H](c5ccc(-c6scnc6C)cc5)[C@@H](C)O)C(C)C)nn4)cc3)c2n1"
stdout: 10 to 100 nM

stdin: Here is the next molecule: CCn1nccc1-c1ccc([C@@H](NC(=O)[C@@H]2C[C@@H](O)CN2C(=O)[C@H](C(C)C)n2cc(-c3ccc(COc4c(-c5c(C)c(F)cc6[nH]ncc56)c(C5CC5)cc5c(N6C[C@@H]7C[C@H]6CN7)nc(OCC(OC)C(F)F)nc45)cc3)nn2)[C@H](C)O)cc1 (some centres unmarked) [Example 122]
stdout: < 10 nM

stdin: Thanks! And "Cc1ncsc1-c1ccc([C@H](CO)NC(=O)[C@@H]2C[C@@H](O)CN2C(=O)[C@H](C(C)C)n2cc(-c3ccc(COc4c(-c5c(C)c(F)cc6[nH]ncc56)c(C5CC5)cc5c(N6C[C@@H]7C[C@H]6CN7)nc(OC6CCC7(CC6)COC7)nc45)cc3)nn2)cc1" ?
stdout: < 10 nM

stdin: Okay, and CO[C@@H](C)COc1nc(N2C[C@H]3C[C@@H]2CN3)c2cc(C3CC3)c(-c3c(C)c(F)cc4[nH]ncc34)c(OCc3ccc(-c4cn([C@H](C(=O)N5C[C@H](O)C[C@H]5C(=O)N[C@@H](CO)c5ccc(-c6scnc6C)cc5)C(C)C)nn4)cc3)c2n1 (single isomer, unassigned) [Example 2B] ?
stdout: > 1000 nM

stdin: Request: CO[C@@H](C)COc1nc(N(C)[C@H]2CCNC2)c2cc(C3CC3)c(-c3c(C)c(F)cc4[nH]ncc34)c(OCc3ccc(-c4cn([C@H](C(=O)N5C[C@H](O)C[C@H]5C(=O)N[C@H](c5ccc(-c6scnc6C)cc5)[C@H](C)O)C(C)C)nn4)cc3)c2n1 [Example 144]
stdout: > 1000 nM

* * *

- Test System: KRAS (G12D) (Homo sapiens, UniProt P01116, G12D)
- Construct: in-cell western with KRAS G12D antibody after 24 h
- Test Summary: KRAS (G12D) cellular degradation assay in AsPC-1 cells
- Format: cell-based
- Condition Summary: 24 hours, antibody fluorescence (Odyssey CLX), DC50 half-maximal degradation concentration
Property: DC50

Before answering, review these 4 worked examples.
CO[C@@H](C)COc1nc(N2C[C@@H]3C[C@H]2CN3)c2cc(C3CC3)c(-c3c(C)c(F)cc4[nH]ncc34)c(OCc3ccc(-c4cn([C@H](C(=O)N5C[C@H](O)C[C@H]5C(=O)N[C@H](C#Cc5ccc6nc(N)sc6c5)CO)C(C)C)nn4)cc3)c2n1 ... < 10 nM
CCn1nccc1-c1ccc([C@H](CO)NC(=O)[C@@H]2C[C@@H](O)CN2C(=O)[C@H](C(C)C)n2cc(-c3ccc(COc4c(-c5c(C)c(F)cc6[nH]ncc56)c(C5CC5)cc5c(N6CCNCC[C@H]6C)nc(OC[C@H](C)OC)nc45)cc3)nn2)cc1 [Example 178] ... < 10 nM
CCn1nccc1-c1ccc([C@H](CO)NC(=O)[C@@H]2C[C@@H](O)CN2C(=O)[C@H](C(C)C)n2cc(-c3ccc(COc4c(-c5c(C)c(F)cc6[nH]ncc56)c(C5CC5)cc5c(N6CC7CCC(C6)N7)nc(OC[C@H](C)OC)nc45)cc3)nn2)cc1 (single isomer, unassigned) [Example 8] ... 10 to 100 nM
CO[C@H]1CC[C@H](Oc2nc(N3C[C@@H]4C[C@H]3CN4)c3cc(C4CC4)c(-c4c(C)c(F)cc5[nH]ncc45)c(OCc4ccc(-c5cn([C@H](C(=O)N6C[C@H](O)C[C@H]6C(=O)N[C@H](c6ccc(-c7scnc7C)cc6)[C@H](C)O)C(C)C)nn5)cc4)c3n2)C1 ... < 10 nM

stdin: If you can, please state the reported DC50 value of "Cc1ncsc1-c1ccc([C@H](CO)NC(=O)[C@@H]2C[C@@H](O)CN2C(=O)[C@H](C(C)C)n2cc(-c3ccc(COc4c(-c5c(C)c(F)c(F)c6[nH]ncc56)c(C5CC5)cc5c(N6C[C@@H]7C[C@H]6CN7)nc(OC6CCOCC6)nc45)cc3)nn2)cc1" .
stdout: < 10 nM

stdin: Okay, and "CCn1nccc1-c1ccc([C@@H](NC(=O)[C@@H]2C[C@@H](O)CN2C(=O)[C@H](C(C)C)n2cc(-c3ccc(COc4c(-c5c(C)c(F)cc6[nH]ncc56)c(C5CC5)cc5c(N6C[C@@H]7C[C@H]6CN7)nc(O[C@H]6C[C@H](OC)C6)nc45)cc3)nn2)[C@H](C)O)cn1" ?
stdout: 10 to 100 nM

stdin: What would you report for "CCn1nccc1-c1ccc([C@@H](NC(=O)[C@@H]2C[C@@H](O)CN2C(=O)[C@H](C(C)C)n2cc(-c3ccc(COc4c(-c5c(C)c(F)cc6[nH]ncc56)c(C5CC5)cc5c(N(C)[C@H]6CCNC6)nc(O[C@H]6C[C@H](OC)C6)nc45)cc3)nn2)[C@H](C)O)c2c1CC2" ?
stdout: < 10 nM

* * *

Form field: DC50 (one value per entry).
- Test System: KRAS (G12D) (Homo sapiens, UniProt P01116, G12D)
- Construct: in-cell western with KRAS G12D antibody after 24 h
- Test Summary: KRAS (G12D) cellular degradation assay in AsPC-1 cells
- Type: cell-based
- Condition Summary: 24 hours, antibody fluorescence (Odyssey CLX), DC50 half-maximal degradation concentration

CO[C@H]1C[C@H](Oc2nc(N(C)[C@H]3CCNC3)c3cc(C4CC4)c(-c4c(C)c(F)cc5[nH]ncc45)c(OCc4ccc(-c5cn([C@H](C(=O)N6C[C@H](O)C[C@H]6C(=O)N[C@H](c6ccc(-c7scnc7C)c7c6CC7)[C@H](C)O)C(C)C)nn5)cc4)c3n2)C1 ... < 10 nM

Could you now look at the following compound, please?
stdin: I'd like to know its DC50. The compound in question is CO[C@@H](C)COc1nc(N2CC3CCC(C2)N3)c2cc(C3CC3)c(-c3c(C)c(F)cc4[nH]ncc34)c(OCc3ccc(-c4cn([C@H](C(=O)N5C[C@H](O)C[C@H]5C(=O)N[C@@H](CO)c5ccc(-c6scnc6C)cc5)C(C)C)nn4)cc3)c2n1 (single isomer, unassigned) [Example 12B]
stdout: > 1000 nM
